Tested on: Candida parapsilosis
Test Description: Antifungal activity against Candida parapsilosis ATCC 90018 assessed as reduction in fungal cell growth incubated for 24 hrs by MTT based broth double dilution method
Type: functional
Conditions Used: Lodderomyces parapsilosis, ATCC 90018, 24 h
Reported log10 of MIC is given for each of the following compounds.
Readout Label: log10 of MIC (log10 of the value in µg/mL)

compound="COc1ccc2cc(C(=O)NCC(O)(Cn3cncn3)c3ccc(F)cc3F)c(=O)oc2c1 (racemic)" measured_result=-0.60
compound="CCN(CC)c1ccc2cc(C(=O)NCC(O)(Cn3cncn3)c3ccc(Cl)cc3Cl)c(=O)oc2c1 (racemic)" measured_result=-1.22
compound="CCC(CC)Oc1ccc2cc(C(=O)NCC(O)(Cn3ccnc3)c3ccc(Cl)cc3Cl)c(=O)oc2c1 (racemic)" measured_result=-0.90
compound=Clc1ccccc1C(c1ccccc1)(c1ccccc1)n1ccnc1 measured_result=-2.15
compound="CCC(CC)Oc1ccc2cc(C(=O)NCC(O)(Cn3cncn3)c3ccc(F)cc3F)c(=O)oc2c1 (racemic)" measured_result=-0.30
compound="CCC(CC)Oc1ccc2cc(C(=O)NCC(O)(Cn3ccnc3)c3ccc(F)cc3F)c(=O)oc2c1 (racemic)" measured_result=-0.90
compound="CCC(C)n1ncn(-c2ccc(N3CCN(c4ccc(OCC5COC(Cn6cncn6)(c6ccc(Cl)cc6Cl)O5)cc4)CC3)cc2)c1=O (racemic)" measured_result=-2.15
